// values below are reported T/C
# Test system: P388 leukemia ip, CD2F1 mice, survival T/C
# assayComment: NCI In Vivo Anticancer Drug Screen. Data for tumor model P388 Leukemia (intraperitoneal) in CD2F1 (CDF1) mice
# conditionLabel: endpoint: median survival time; dose: 50.0 mg/kg/injection; schedule: Q04DX002 (ip); vehicle: saline with Tween-80; higher = longer survival
Toxic doses and inconclusive results are not listed.

For orientation, consider the following solved cases.
- molecule: "CN=C(N)NN=C(c1ccc(F)cc1)c1ccc(F)cc1"
  T/C: "87 % of control"
- molecule: "COc1ccc(/C=N\\N=C(/[O-])c2ccccc2O)cc1.COc1ccc(/C=N\\N=C(/[O-])c2ccccc2O)cc1.[Co+2]"
  T/C: "93 % of control"
- molecule: "CN=C1N=C(c2ccc(C(C)(C)C)cc2)C(O)(c2ccc(C(C)(C)C)cc2)N1 (centres undefined)"
  T/C: "117 % of control"

Prompt line: Which value of T/C has been reported for NC(=S)N/N=C1/C(=O)N(c2ccc(S(N)(=O)=O)cc2)C(=O)C1C(=O)Nc1ccc(S(N)(=O)=O)cc1 (centres undefined) in the records?
Response line: 100 % of control

###

# System: P388 leukemia ip, CD2F1 mice, survival T/C
# assayComment: NCI In Vivo Anticancer Drug Screen. Data for tumor model P388 Leukemia (intraperitoneal) in CD2F1 (CDF1) mice
# conditionLabel: endpoint: median survival time; dose: 200.0 mg/kg/injection; schedule: Q04DX003 (ip); vehicle: saline; higher = longer survival
Toxic doses and inconclusive results are not listed.
endpointName: T/C

For orientation, consider the following solved cases.
- compound: "Cc1ccc(C2NC(c3ccc(C)cc3)C3CCCC2C3O)cc1 (stereo not given)"
  T/C: "97 % of control"
- compound: "CS(=O)(=O)OCC(O)C(O)COS(C)(=O)=O (stereo not given)"
  T/C: "100 % of control"
- compound: "CC(/C=N\\NC(N)=O)=N/N=C(N)N"
  T/C: "94 % of control"
- compound: "CN1C(=O)C2C(N(C3OC(CO)C(O)C3O)C1=O)C2(Cl)Cl (stereo not given)"
  T/C: "99 % of control"
- compound: "CCNCCn1cccc1"
  T/C: "95 % of control"

Prompt line: Which value of T/C has been reported for O=C(O)C1Cc2c([nH]c3ccccc23)C(C(=O)O)N1 (stereo not given) in the records?
Response line: 93 % of control

Prompt line: Which value of T/C has been reported for CC(/C=N\Nc1ccc(C(=O)O)cc1)=N/N=C(N)N in the records?
Response line: 98 % of control

Prompt line: Which value of T/C has been reported for C1=NCCCCCCCN=Cc2ccccc2NCCNc2ccccc21 in the records?
Response line: 92 % of control

Prompt line: Which value of T/C has been reported for O=C(CCS(=O)O)c1cccs1 in the records?
Response line: 96 % of control

Prompt line: Which value of T/C has been reported for CCn1c(S)c(N=NC(=S)c2ccc3ccccc3n2)c2ccccc21 in the records?
Response line: 103 % of control

###

// values below are reported T/C
# Tested on: P388 leukemia ip, CD2F1 mice, survival T/C
# assayComment: NCI In Vivo Anticancer Drug Screen. Data for tumor model P388 Leukemia (intraperitoneal) in CD2F1 (CDF1) mice
# conditionLabel: endpoint: median survival time; dose: 120.0 mg/kg/injection; schedule: Q01DX005 (ip); vehicle: saline; higher = longer survival
Toxic doses and inconclusive results are not listed.

- molecule: "Nc1nc2c(c(-c3nc(N)nc4c3CCc3ccccc3-4)n1)CCc1ccccc1-2"
  T/C: "99 % of control"
- molecule: "COC(=O)c1nnn(-c2ccc(S(N)(=O)=O)cc2)c1N"
  T/C: "104 % of control"
- molecule: "CCC(=O)NC(N)=NC#N"
  T/C: "101 % of control"

Prompt line: Which value of T/C has been reported for COc1cncn2nc(C)nc12 in the records?
Response line: 99 % of control

Prompt line: Which value of T/C has been reported for CCCCCCCC[N+]1([O-])CC[N+](C)([O-])CC1 (stereo unspecified) in the records?
Response line: 101 % of control

Prompt line: Which value of T/C has been reported for N#Cc1nc(CC(=O)c2ccc(Cl)cc2Cl)c(CC(=O)c2ccc(Cl)cc2Cl)nc1C#N in the records?
Response line: 106 % of control

Hello, the source for this data is PubChem BioAssay AID330, in case you need it.
